Source of measurements: ChEMBL document CHEMBL3046656

# study system: UniProt:O42275
pIC50: −log10 of the molar value.
Catalogue of molecules with associated pIC50
result type: pIC50

>>> print(df.to_string())
                                    molecule  result_type  observed
 0  CCn1c2ccccc2c2cc(NC(=O)CSC(=S)N3CCCCC3)ccc21        pIC50    < 3.71
 1  CCn1c2ccccc2c2cc(NC(=O)CSC(=S)N3CCC(C)CC3)ccc21        pIC50    < 3.73
 2  CCN1CCN(C(=S)SCC(=O)Nc2ccc3c(c2)c2ccccc2n3CC)CC1        pIC50    < 3.74
 3  CCn1c2ccccc2c2cc(NC(=O)CSC(=S)N3CCN(C)CC3)ccc21        pIC50    < 3.73
 4  CCN(CC)C(=S)SCC(=O)Nc1ccc2c(c1)c1ccccc1n2CC        pIC50    < 3.70
 5  CCn1c2ccccc2c2cc(NC(=O)CSC(=S)N3CCN(c4ccccc4)CC3)ccc21        pIC50    < 3.79
 6  CCn1c2ccccc2c2cc(NC(=O)CSC(=S)N3CCCCC3C)ccc21 (stereo unspecified)        pIC50    < 3.73
 7  CCn1c2ccccc2c2cc(NC(=O)CSC(=S)N3CCCC3)ccc21        pIC50    < 3.70
 8  CCn1c2ccccc2c2cc(NC(=O)CSC(=S)N3CCN(Cc4ccccc4)CC3)ccc21        pIC50    < 3.80
 9  CCn1c2ccccc2c2cc(NC(=O)CSC(=S)N3CCN(CCN(C)C)CC3)ccc21        pIC50      4.81
10  CCn1c2ccccc2c2cc(NC(=O)CSC(=S)N3CCOCC3)ccc21        pIC50    < 3.71

---

# study system: UniProt O42275
# experiment description: Inhibition of Electrophorus electricus (electric eel) AChE using acetylthiocholine iodide as substrate at 80 ug/mL incubated for 15 min prior to substrate addition measured after 30 min by Ellman's spectrophotometric method relative to control
result type: inhibition (%)

                                    compound  result_type  observed
 0  CCn1c2ccccc2c2cc(NC(=O)CSC(=S)N3CCOCC3)ccc21   inhibition      15.4
 1  CCn1c2ccccc2c2cc(NC(=O)CSC(=S)N3CCN(c4ccccc4)CC3)ccc21   inhibition      26.6
 2  CCn1c2ccccc2c2cc(NC(=O)CSC(=S)N3CCCCC3C)ccc21 (stereo unspecified)   inhibition        18
 3  CCn1c2ccccc2c2cc(NC(=O)CSC(=S)N3CCC(C)CC3)ccc21   inhibition      23.6
 4  CCn1c2ccccc2c2cc(NC(=O)CSC(=S)N3CCCC3)ccc21   inhibition      9.05
 5  CCn1c2ccccc2c2cc(NC(=O)CSC(=S)N3CCCCC3)ccc21   inhibition      11.3
 6  CCn1c2ccccc2c2cc(NC(=O)CSC(=S)N3CCN(CCN(C)C)CC3)ccc21   inhibition      91.3
 7  CCn1c2ccccc2c2cc(NC(=O)CSC(=S)N3CCN(C)CC3)ccc21   inhibition      21.1
 8  CCn1c2ccccc2c2cc(NC(=O)CSC(=S)N3CCN(Cc4ccccc4)CC3)ccc21   inhibition      12.8
 9  CCN(CC)C(=S)SCC(=O)Nc1ccc2c(c1)c1ccccc1n2CC   inhibition      18.3
10  CCN1CCN(C(=S)SCC(=O)Nc2ccc3c(c2)c2ccccc2n3CC)CC1   inhibition      19.6
